- Tested on: HOP-62 NSCLC
- assaySummary: NCI tumour cell line growth inhibition, 48 h
parameter: TGI

[[record]]
compound = "CN(C)c1nc2sc3c(c2c(=O)o1)CCCC3"
parameter = "TGI"
result = "> 100 µM"

[[record]]
compound = "Cc1cccc(C(=O)c2cccc3ccccc23)c1C(=O)O"
parameter = "TGI"
result = "> 100 µM"

[[record]]
compound = "C[N+]1(C)CCCC1C(=O)[O-] (stereo not given)"
parameter = "TGI"
result = "> 100 µM"

[[record]]
compound = "COc1ccc(/C(=N/NC(N)=O)C2(O)C(=O)Nc3ccc([N+](=O)[O-])cc32)cc1 (stereo not given)"
parameter = "TGI"
result = "> 100 µM"

[[record]]
compound = "CC(=O)OCC1OC(Nc2[nH]c(=O)n(C)c(=O)c2-c2csc(N)n2)C(OC(C)=O)C(OC(C)=O)C1OC(C)=O (stereo not given)"
parameter = "TGI"
result = "> 100 µM"

[[record]]
compound = "O=c1c2ccccc2oc2nc3n(c(=O)c12)CCCS3"
parameter = "TGI"
result = "> 100 µM"

[[record]]
compound = "CC/C(Cc1ccccc1)=C(\\c1ccc(OCCN2CCCCCC2)cc1)c1ccc(OC(=O)NCc2ccccc2)cc1"
parameter = "TGI"
result = "14.5 µM"

[[record]]
compound = "O=C(Cn1c(=O)oc2ccc(C(=O)c3ccc(F)cc3)cc21)c1ccc([N+](=O)[O-])cc1"
parameter = "TGI"
result = "> 100 µM"

[[record]]
compound = "CCOC(=O)c1cccc(NC(=O)CCl)c1"
parameter = "TGI"
result = "6.15 µM"

[[record]]
compound = "CN1CCN(c2ccc(C(=O)Nc3n[nH]c4ccc(Cc5cc(F)cc(F)c5)cc34)c(NC3CCOCC3)c2)CC1"
parameter = "TGI"
result = "> 10 µM"

[[record]]
compound = "CCOC(=O)c1ccc(N=NN(C)C(=O)C(C)N)cc1 (stereo not given)"
parameter = "TGI"
result = "> 100 µM"

[[record]]
compound = "CN(C)CC(/C(Cc1ccccc1)=N\\NC(=O)C[n+]1ccccc1)c1ccccc1 (stereo not given)"
parameter = "TGI"
result = "> 100 µM"

[[record]]
compound = "[O-]/[N+](=C\\c1ccccc1)[C@H](COCc1ccccc1)c1ccccc1"
parameter = "TGI"
result = "> 100 µM"

[[record]]
compound = "O=C(c1ccccc1)c1c(NCC(O)CN2CCCC2)n(Cc2ccccc2)c(=O)n(Cc2ccccc2)c1=O (stereo not given)"
parameter = "TGI"
result = "49.5 µM"

[[record]]
compound = "Nc1nc2c(=O)c3ccccc3sc2s1"
parameter = "TGI"
result = "> 100 µM"


====

- System: KM12 colon
- assaySummary: NCI tumour cell line growth inhibition, 48 h
TGI by entry:
parameter: TGI

[[record]]
molecule = "O=C(Nc1ccc(Cl)cc1Cl)c1ccc(NC2=C(Cl)C(=O)N(Cc3ccccc3)C2=O)cc1"
experimentalsystem = "KM12 colon"
result = "64.4 µM"

[[record]]
molecule = "CN(C)c1nc2sc3c(c2c(=O)o1)CCCC3"
experimentalsystem = "KM12 colon"
result = "> 100 µM"

[[record]]
molecule = "COC(=O)[C@H](Cc1ccccc1)NC(=O)c1ccc(CNC(=O)/C=C/c2ccc(-c3ccccc3)cc2)cc1"
experimentalsystem = "KM12 colon"
result = "> 100 µM"

[[record]]
molecule = "COC(=O)N1CC2(CO)C3CC=C(C(=O)Nc4ccccc4Br)C2C1C3Br (stereo not given)"
experimentalsystem = "KM12 colon"
result = "> 50 µM"

[[record]]
molecule = "CN(C)CCCOc1ccccc1NC1=C(Cl)C(=O)C(Nc2ccccc2OCCCN(C)C)=C(Cl)C1=O"
experimentalsystem = "KM12 colon"
result = "2.2 µM"

[[record]]
molecule = "CC(C)(C)OC(=O)NCCNC1=CC(=O)c2nc3ccccc3c3ccnc1c23"
experimentalsystem = "KM12 colon"
result = "66.6 µM"

[[record]]
molecule = "O=C1c2ccccc2C2CNC1(O)c1ccccc12 (stereo not given)"
experimentalsystem = "KM12 colon"
result = "> 100 µM"

[[record]]
molecule = "C=CCC1(O)c2ccccc2C(=O)c2c(O)ccc(O)c21 (stereo not given)"
experimentalsystem = "KM12 colon"
result = "30.1 µM"

[[record]]
molecule = "COC(=O)c1c2c(cc3c1CC1(Cc4ccccc4C1=O)C3)CCC2 (stereo not given)"
experimentalsystem = "KM12 colon"
result = "61.5 µM"

[[record]]
molecule = "CN1C/C(=C\\c2cccs2)C2=NC(=S)NC(c3cccs3)C2C1 (stereo not given)"
experimentalsystem = "KM12 colon"
result = "> 100 µM"

[[record]]
molecule = "COc1ccc(-c2nc(N)c(C#N)c3c2CCS(=O)(=O)c2ccc(C)cc2-3)cc1OC"
experimentalsystem = "KM12 colon"
result = "52.3 µM"

[[record]]
molecule = "CN(C)CC(/C(Cc1ccccc1)=N\\NC(=O)C[n+]1ccccc1)c1ccccc1 (stereo not given)"
experimentalsystem = "KM12 colon"
result = "> 100 µM"

[[record]]
molecule = "[O-]/[N+](=C\\c1ccccc1)[C@H](COCc1ccccc1)c1ccccc1"
experimentalsystem = "KM12 colon"
result = "> 100 µM"

[[record]]
molecule = "CCOC(=O)CCCn1nnc(C(=O)OCC)c1C(=O)OCC"
experimentalsystem = "KM12 colon"
result = "> 100 µM"

[[record]]
molecule = "O=S(=O)(Oc1ccc2oc3ccccc3c2c1-c1c(OS(=O)(=O)C(F)(F)F)ccc2oc3ccccc3c12)C(F)(F)F"
experimentalsystem = "KM12 colon"
result = "> 100 µM"

[[record]]
molecule = "CCc1nn(CN2CCN(C)CC2)c(=S)n1/N=C\\c1ccc(-c2ccc([N+](=O)[O-])cc2)o1"
experimentalsystem = "KM12 colon"
result = "> 100 µM"

[[record]]
molecule = "O=C(CP(c1ccccc1)c1ccccc1)c1cccc(C(=O)CP(c2ccccc2)c2ccccc2)c1"
experimentalsystem = "KM12 colon"
result = "> 100 µM"

[[record]]
molecule = "COc1cccc(C2CC(c3cc(OC)c(OC)c(OC)c3)=NN2)c1 (stereo not given)"
experimentalsystem = "KM12 colon"
result = "20.4 µM"

[[record]]
molecule = "O=C(NCCCCCCCCNC(=O)c1cnc2ccccc2n1)c1cnc2ccccc2n1"
experimentalsystem = "KM12 colon"
result = "> 100 µM"

[[record]]
molecule = "COc1cc(-c2nn3c(/C=C4/C(=O)Nc5ccccc54)c(-c4ccc(C)cc4)nc3s2)cc(OC)c1OC"
experimentalsystem = "KM12 colon"
result = "> 100 µM"

